- System: LNCaP tumor bearing mice
- protocol.text: SPECT/CT scanning, exposure of 177Lu labeled compounds in tumor and tissues
- Type: in vivo
- settings: labeled with 177Lu; about 7.4 MBq (200 μCi) tail vein; scans 1-72 h
assay.endpoint: Exposure in Spleen (h*ID %/g)
Give your result in h*ID %/g as a bare value.

Below: 2 compounds and their reported Exposure in Spleen.
compound: COc1ccc(C(=O)NCCN2CCN(C(=O)CCC(=O)N[C@@H](CCCCNC(=O)CN3CCN(CC(=O)O)CCN(CC(=O)O)CCN(CC(=O)O)CC3)C(=O)N3CCc4cc(C(=O)N[C@@H](Cc5ccc6ccccc6c5)C(=O)NCCCC[C@H](NC(=O)N[C@@H](CCC(=O)O)C(=O)O)C(=O)O)ccc4C3)CC2)cc1 [PSMA-L]
Exposure in Spleen [h*ID %/g]: 34.43
//
compound: COc1ccc(CCCC(=O)NC(Cc2c[nH]cn2)C(=O)N[C@@H](CCCCNC(=O)CN2CCN(CC(=O)O)CCN(CC(=O)O)CCN(CC(=O)O)CC2)C(=O)NCC2CCC(C(=O)N[C@@H](Cc3ccc4ccccc4c3)C(=O)NCCCC[C@H](NC(=O)N[C@@H](CCC(=O)O)C(=O)O)C(=O)O)CC2)cc1 (stereo partly drawn) [PSMA-B]
Exposure in Spleen [h*ID %/g]: 31.81

Now look at this one.
Q: Entry COc1ccc(CCCC(=O)NC(CCCNC(=N)N)C(=O)N[C@@H](CCCCNC(=O)CN2CCN(CC(=O)O)CCN(CC(=O)O)CCN(CC(=O)O)CC2)C(=O)NCC2CCC(C(=O)N[C@@H](Cc3ccc4ccccc4c3)C(=O)NCCCC[C@H](NC(=O)N[C@@H](CCC(=O)O)C(=O)O)C(=O)O)CC2)cc1 (stereo partly drawn) [PSMA-A] has what Exposure in Spleen?
Result: 42.25
